Below, each entry is listed with its recorded median enrichment.
# Tested on: HEK293T;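 also: lentiviral eGFP-IRES-mCherry reporter pool sorted by FACS 96 h post-transduction, gated on mCherry-high cells, Illumina read counts normalized per million, median across four biological replicates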
# assaySummary: median enrichment of reporter reads in eGFP-reduced (low/intermediate) vs eGFP-high sorted cells (eGFP-extension fusion abundance) (ratio); higher = stronger loss of eGFP-fusion protein abundance (more destabilising extension)
propertyLabel: median enrichment

* CCCCCCC [Cys07] | 9.39
* FGHSRTGERQLYFSLGQLQRVGQALMGSDCQSDAVGPRQRKAGRRGARTFSPHCPFPFSGEHRRLLTPTSCEAVAYGVQRSWS [C16orf58] | 4.42
* LWDNHKVWKLGLK [BCO2] | 4.23
* QLRTLPFFPLSSLPLPFLPIYPFPSSKSTQGEENKMTTQDLVAKILHSKSSFV [FGF12] | 4.18
* EESATNYNFTIKTGKRPGMVAHACNHSTLGG [OR6C6] | 6.68
* ECPLFLFLLSPFSSLRSIGPLLSIFITRCFPLKHAHATVTKTNNYHFPNFIQNHFSVFLFPTPPTTFNDEIP [PHYHIPL] | 15.5
* GTHNLHLSGYYYRFLHAQSRRIWTQMVTITSWPTNKKVLTML [ZNF717] | 7.8
* LFDDRDLH [VAMP4] | 0.625
* CTTQDTHSTCMNNTGHTQARA [CCDC40] | 1.14
* LGYRFWKHLSLGPKEVLLPFWASITQVVPVLTAEETSLPLFVLSPSFFNSV [MS4A8] | 15.7
* LVAPPHWTHGLAHASPLLPLPAIDNVAGTSASPLQPSNFPGTLLSAPEEGAVVSCCLWAPASSAVLGSVLLASVNNKATVCSG [MCM5] | 4.44
* CRKVSKNVNIL [C2orf49] | 0.739
* GGRACTGATQPGLGAASPQPPRAKNLFIKECFGTL [LMNA] | 17.9
* CLGVKAFHGHPCTGYLLVMLQNVSPTLCPSLALLPQSP [TEX35] | 11.2
* RGGSASVPSLTSLGCCFSGVMSPLPLGYLPSTGQGPWWADGN [SFXN3] | 21.3
* REQVPAPHTPWRLPLRLHRLLPSIQPGVQVALFRGQMQAVGRTLPVSCVPHRERLWGDGWGMQSLRANKSSSEPASPLNV [KHK] | 2.84
* LAPRPRETGWRHGAGPSFHGACGCRAGGAAESGPGPLPAGGDFFFSYF [GNA11] | 11.8
* CGEPLAWPTNLGFTIQTADWMKLCTFLSLQLPYVESVIFICTFFAT [TAF7L] | 10.8
* YVFLQCVLQARFIITYRFMISKIK [CLEC3A] | 9.75
* YQFCPTSLSPQPLQSSVTCCGLYSGSALATSPNISSSFSPSDLTVQ [JOSD1] | 7.58
* KPVLGPSVKYP [GNPDA1] | 0.312
* TIRLWDTYQSEPDGFSHFHLYVCAAFLVRWRKEILEEKDFQELLLFLQNLPTAHWDDEDISLLLAEAYRLKFAFADAPNHYKK [TBC1D22A] | 4.42
